- Test system: SK-MEL-2 melanoma
- protocolNotes: NCI-60 one-dose screen, 48 h
- cond: 10 µM unless noted
About 83,000 compounds went through this panel and 20% of them were active in at least one assay; those are over-represented in the sample as a whole. Active and inactive are the calls of the source. Rule for the calls: active = growth percent below 10; inactive = the rest.
// allowed return values: YES (active), NO (inactive)

Identify the outcome logged in this assay for the compound shown: "CCOC(=O)c1ccc(NCCC(=O)O)cc1" NO

Identify the outcome logged in this assay for the compound shown: C#CC[C@@H]1C[C@]2(C)[C@H]3CC[C@@H]4[C@H]5C(C(=C)C)CC[C@]5(C(=O)NCCCCN)CC[C@@]4(C)[C@]3(C)CC[C@H]2C(C)(C)[C@H]1OC(C)=O (stereo partly drawn) NO

Identify the outcome logged in this assay for the compound shown: "CCn1c(CN2CCN(Cc3ccccc3)CC2)nc2cc(NC(=O)c3cccs3)ccc21" YES

Identify the outcome logged in this assay for the compound shown: "COc1ccc(/C=C/C(=O)c2ccc(NC(=O)CSc3nnc(-c4ccc(OC)cc4)n3-c3ccccc3)cc2)cc1" NO

Identify the outcome logged in this assay for the compound shown: "COc1c(-c2cc(-c3ccc(C)o3)[nH]c(=O)n2)c(O)cc2occc12" NO

Identify the outcome logged in this assay for the compound shown: "Oc1[nH]c2ccccc2c1/C=c1/ccc2c(c1)N=C(c1ccc(C(F)(F)F)cc1)N=2" NO

Identify the outcome logged in this assay for the compound shown: "COC(=O)c1cc2oc(/C=N/NC(=O)c3cc4oc(-c5cccc(C(F)(F)F)c5)cc4[nH]3)cc2n1Cc1ccccc1" NO

Identify the outcome logged in this assay for the compound shown: "Nc1ccc(C(OC(=O)c2cc3ccccc3c(Cc3c(O)c(C(=O)OC(c4ccc(N)cc4)(c4ccc(N)cc4)c4ccc(N)cc4)cc4ccccc34)c2O)(c2ccc(N)cc2)c2ccc(N)cc2)cc1" YES

---

- System: HCT-15 colon
- protocolNotes: NCI-60 one-dose screen, 48 h
- cond: 10 µM unless noted
About 83,000 compounds went through this panel and 20% of them were active in at least one assay; those are over-represented in the sample as a whole. Activity calls are given as the source filed them. The calls were made as follows: active = growth percent below 10; inactive = the rest.
// allowed return values: active, inactive

Solved cases (6 shown):
COc1cccc(Cn2c(-c3nonc3NC(C)=O)nc3ccccc32)c1	inactive
CC(=O)c1nn(-c2ccccc2)/c(=N\N=C\c2coc3ccc(F)cc3c2=O)s1	inactive
CCCCCCCCCC1=NC(C)(C)CN1C(C)(C)CO	inactive
CN=C1C=C/C(=N/N=c2/ccn(O)cc2C)C=C1C	inactive
COc1ccc(-c2nc3ccc(Cc4ccc5nc(-c6ccc(OC)cc6)[nH]c5c4)cc3[nH]2)cc1	inactive
O=[N+]([O-])c1cccc([I+]c2ccccc2)c1	inactive

Identify the outcome logged in this assay for the molecule shown: Cc1ccccc1N1C(c2ccccc2)=NNC12C=CC(=O)c1c(O)cccc12 (configuration not stated) inactive

---

- System: OVCAR-4 ovarian
- protocolNotes: NCI-60 one-dose screen, 48 h
- cond: 10 µM unless noted
- Procedure: Growth inhibition of the OVCAR-4 human tumor cell line is measured as a screen for anti-cancer activity. Cells are grown in 96 well plates and exposed to the test compound for 48 hours. Compounds are tested at a single concentration, which is 10^-5 M for most compounds. The reported endpoint is percent growth (GI% or GIPRCNT), where numbers from 0 - 100% represent growth inhibition, and numbers from -100% - 0 represent cell death. For example, a value of 40 represents 60% growth inhibition. […]
This is part of a sample that, as a whole, favours compounds with a hit. Of some 83,000 tested, about 20% had one in any assay. Activity calls are given as the source filed them. Rule for the calls: active = growth percent below 10; inactive = the rest.
// allowed return values: active, inactive

COc1ccc(C(=O)c2cc(C)c(OC)c(C)c2)cc1OC(=O)CCl	inactive
O=C(Oc1c(Cl)c(Cl)c(Cl)c(Cl)c1Cl)C1CCCN1C(=O)OCc1ccccc1 (stereo not drawn)	inactive
COc1ccc(C2C=C(c3ccc(Cl)cc3)N=C3SC=CN32)cc1 (stereo not drawn)	inactive

Identify the outcome logged in this assay for the compound shown: "COc1cc(C)cc2oc3oc(=O)c(-c4csc(-c5cc6ccccc6oc5=O)n4)cc3c(=O)c12" inactive

---

- Test system: UO-31 renal
- protocolNotes: NCI-60 one-dose screen, 48 h
- cond: 10 µM unless noted
About 83,000 compounds went through this panel and 20% of them were active in at least one assay; those are over-represented in the sample as a whole. Active and inactive are the calls of the source. How the source made its calls: active means growth percent below 10; inactive means the rest.
// allowed return values: active, inactive

Solved cases (2 shown):
CC1(C)CC[C@]2(C(=O)N3CCNCC3)CC[C@]3(C)C(=CC[C@@H]4[C@@]5(C)CCC(=O)C(C)(C)[C@@H]5CC[C@]43C)[C@@H]2C1	inactive
CNC(=O)c1ccccc1Sc1ccc2c(/C=C/c3ccccn3)n[nH]c2c1	inactive

Identify the outcome logged in this assay for the compound shown: "COc1ccc2[nH]c(C(=O)OCc3ccc4c(Br)cc(Br)c(O)c4n3)cc2c1" active

---

- Test system: NCI/ADR-RES ovarian
- protocolNotes: NCI-60 one-dose screen, 48 h (100 = growth as untreated, 0 = no growth, -100 = all killed)
- cond: 10 µM unless noted
This is part of a sample that, as a whole, favours compounds with a hit. Of some 83,000 tested, about 20% had one in any assay.
experimentalEndpoint: growth (%)
Numbers only; they are read as %.

Past entries and their recorded results:
O=C1c2ccccc2C2N1CCC1CCc3ccccc3N12 (stereo not drawn)	103
CCSc1ccc([C@@H]2[C@@H](O)C(=O)N2c2cc(OC)c(OC)c(OC)c2)cc1	8.62
COc1cc2c(cc1I)-c1c(cc(OC)c(OC)c1OC)CC[C@@H]2NC(C)=O	-19.2
O=C(CCc1nc2sc3c(c2c(=O)[nH]1)CCC3)NCc1cn(-c2ccccc2)nc1-c1ccccc1	69.5
COCCn1c(Nc2ccc(C(=O)NO)cc2)nc2ccccc21	-9.22

Just so you know, measured growth for "CC(=O)O[C@H]1[C@H](CC#CC#CC[C@@H]2C[C@]3(C)[C@H]4CC=C5[C@H]6[C@@H](C)[C@H](C)CC[C@]6(C(=O)NCCCCCCCCN)CC[C@@]5(C)[C@]4(C)CC[C@H]3C(C)(C)[C@H]2OC(C)=O)C[C@]2(C)[C@H]3CC=C4[C@H]5[C@@H](C)[C@H](C)CC[C@]5(C(=O)NCCCCCCCCN)CC[C@@]4(C)[C@]3(C)CC[C@H]2C1(C)C" came out at 98.1

Just so you know, measured growth for "COc1ccc(Sc2[nH]c(C=O)c3ccccc23)cc1" came out at 46.8

Just so you know, measured growth for "O=C(Nc1ccc(Oc2ccc(NC(=O)Nc3ccccc3Cl)cc2)cc1)Nc1ccccc1Cl" came out at 70.3

---

- Test system: SK-MEL-2 melanoma
- protocolNotes: NCI-60 one-dose screen, 48 h (100 = growth as untreated, 0 = no growth, -100 = all killed)
- cond: 10 µM unless noted
The panel holds about 83,000 compounds, 20% with a hit somewhere; the sample as a whole holds those more often. The source made the active and inactive calls. Rule for the calls: active = growth percent below 10; inactive = the rest.
experimentalEndpoint: growth

Just so you know, measured growth for "CCCc1cc2c(cc1CN(Cc1cc3c(cc1CCC)OCO3)C(=N)OCC)OCO2" came out at 81.3% (inactive)

Just so you know, measured growth for "N[C@@H](CO)C(=O)O" came out at 116% (inactive)

Just so you know, measured growth for CC(CN1CCN(C)CC1)CN1c2ccccc2Sc2ccc(C(F)(F)F)cc21 (stereo not drawn) came out at 70% (inactive)

Just so you know, measured growth for "O=C(Nc1ccc(Cl)c(C(F)(F)F)c1)c1ccc(Nc2ccc(Cl)nn2)cc1" came out at 83.3% (inactive)

Just so you know, measured growth for "Clc1cc(Br)ccc1-c1ccc(CNCC2CCNCC2)o1" came out at 76.8% (inactive)

Just so you know, measured growth for "O=C(CN1CCN(c2ccccc2)CC1)N1CCN(c2nnc(-c3ccc(Cl)cc3)c(-c3ccc(Cl)cc3)n2)CC1" came out at 71.9% (inactive)

---

- Test system: U251 CNS
- protocolNotes: NCI-60 one-dose screen, 48 h (100 = growth as untreated, 0 = no growth, -100 = all killed)
- cond: 10 µM unless noted
About 83,000 compounds went through this panel and 20% of them were active in at least one assay; those are over-represented in the sample as a whole.
experimentalEndpoint: growth (%)
Numbers only; they are read as %.

O=C(NNC(=S)Nc1ccccc1)c1ccc(Nc2ncnc3c2cnn3-c2cccc(Br)c2)cc1	114
CN1CCN(Cc2ccc(NC(=O)c3cncc(C#Cc4ncc5cnccn45)c3)cc2C(F)(F)F)CC1	64.2
COc1ccc2[nH]cc(/C=C3\C(=O)Nc4ccccc43)c2c1	38.8
CCCCCCCCCCCC1=NC(C)(C)CN1C(C)(C)CO	21.4
Cc1ccc(Nc2nc(NCCO)c3ccccc3n2)cc1C	15.1

Just so you know, measured growth for "O=C(CI)NCCNc1cccc2c(S(=O)(=O)O)cccc12" came out at 105

Just so you know, measured growth for "Cc1cc(C)c([O-])c(CN(C)CCN(C)Cc2cc(C)cc(C)c2[O-])c1.O=C([O-])c1cccc(C(=O)[O-])n1.[Ti+4]" came out at 9.4

Just so you know, measured growth for "Cc1cc(N=Nc2ccc(-c3ccc(N=Nc4ccc(O)c(C(=O)O)c4)cc3)cc2)c(N)c(N=Nc2ccc(C(=O)O)cc2)c1N" came out at 88.4

Just so you know, measured growth for "O=C1C=CC(=O)N1CO" came out at 117

Just so you know, measured growth for "O=C1/C(=C\c2cccn2Cc2ccc(Cl)cc2)c2ccccc2N1c1c(Cl)cccc1Cl" came out at 75.6
